Attribution: ChEMBL document CHEMBL4342480

- assayed target: Leukotriene A-4 hydrolase (Homo sapiens, UniProt P09960)
- Sequence (P09960 whole entry): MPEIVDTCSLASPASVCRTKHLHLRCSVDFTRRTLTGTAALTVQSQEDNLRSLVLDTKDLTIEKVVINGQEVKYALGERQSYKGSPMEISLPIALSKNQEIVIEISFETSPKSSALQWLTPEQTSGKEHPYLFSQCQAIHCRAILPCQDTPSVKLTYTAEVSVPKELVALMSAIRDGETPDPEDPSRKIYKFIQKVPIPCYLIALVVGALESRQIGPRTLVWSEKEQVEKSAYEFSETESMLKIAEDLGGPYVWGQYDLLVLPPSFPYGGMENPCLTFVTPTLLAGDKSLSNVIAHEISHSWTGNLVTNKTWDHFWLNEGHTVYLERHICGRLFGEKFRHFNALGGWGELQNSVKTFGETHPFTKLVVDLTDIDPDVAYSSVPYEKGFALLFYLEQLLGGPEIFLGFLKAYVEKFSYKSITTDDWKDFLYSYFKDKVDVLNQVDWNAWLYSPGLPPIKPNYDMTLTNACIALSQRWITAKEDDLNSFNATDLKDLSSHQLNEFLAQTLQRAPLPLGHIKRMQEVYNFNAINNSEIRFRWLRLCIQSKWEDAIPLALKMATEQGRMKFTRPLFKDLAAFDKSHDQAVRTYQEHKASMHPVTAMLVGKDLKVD
- assay text: Inhibition of (His)6 tagged human recombinant LTA4H expressed in Escherichia coli BL21(DE3) using non-fluorescent L-arginine-7-amino-4-methylcoumarine as substrate preincubated for 30 mins followed by substrate addition and measured for 30 mins by fluorescence based assay
// reported pIC50 for each item listed
For clarity, pIC50 is expressed as the negative log10 of concentration in mol/L.

Consider the worked cases shown below.
{"columns": ["chemical structure", "readout type", "readout value"],
 "data": [
  ["O=C(Cc1ccc(Oc2nc3ccccc3s2)cc1F)NCc1c[nH]c2cc(F)ccc12", "pIC50", 6.05],
  ["O=C(Cc1ccc(Oc2nc3ccccc3s2)cc1F)NCCc1ccccc1F", "pIC50", 5.42],
  ["O=C(Cc1ccc(Oc2nc3ccccc3s2)cc1F)NCCc1ccc(F)cc1", "pIC50", 6.70],
  ["O=C(Cc1ccc(Oc2nc3ccccc3s2)cc1)NCCc1ccc(F)cc1", "pIC50", 6.62]
]}

[Q] // map Fc1ccc(CCNCc2ccc(Oc3ccccc3)cc2)cc1 to recorded pIC50 (system: Leukotriene A-4 hydrolase (Homo sapiens, UniProt P09960))
[A] 6.70
